Reported ADCC cytotoxic activity (51Cr release) on RPM11666 values for the following binders.
- target-or-test-system: T1, CAPRIN-1 protein expressed on the membrane surface of human cancer cells (human, UniProt Q14444 2-709)
- T1 sequence (looked up): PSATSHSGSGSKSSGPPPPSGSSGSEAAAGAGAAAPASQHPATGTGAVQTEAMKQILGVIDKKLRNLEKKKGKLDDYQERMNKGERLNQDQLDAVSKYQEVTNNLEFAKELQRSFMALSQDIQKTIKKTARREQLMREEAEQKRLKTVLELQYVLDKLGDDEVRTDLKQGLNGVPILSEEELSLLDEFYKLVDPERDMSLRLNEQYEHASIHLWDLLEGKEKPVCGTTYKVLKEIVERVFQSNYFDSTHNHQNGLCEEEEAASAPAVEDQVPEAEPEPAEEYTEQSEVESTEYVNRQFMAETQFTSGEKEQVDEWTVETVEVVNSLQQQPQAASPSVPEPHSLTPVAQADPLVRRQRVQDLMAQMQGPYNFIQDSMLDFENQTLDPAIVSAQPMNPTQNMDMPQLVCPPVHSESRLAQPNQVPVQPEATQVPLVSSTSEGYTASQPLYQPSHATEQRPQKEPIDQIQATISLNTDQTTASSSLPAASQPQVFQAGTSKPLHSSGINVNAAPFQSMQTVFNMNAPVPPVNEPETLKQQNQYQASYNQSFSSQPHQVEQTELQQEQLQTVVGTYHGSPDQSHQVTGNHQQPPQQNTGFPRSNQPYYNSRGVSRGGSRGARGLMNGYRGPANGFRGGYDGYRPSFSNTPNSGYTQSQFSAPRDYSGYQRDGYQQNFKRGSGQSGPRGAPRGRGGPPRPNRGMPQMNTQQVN
- method-notes: cell-based or functional assay
property-measured: ADCC cytotoxic activity (51Cr release) on RPM11666

{"binder": "humanized antibody #0 (antibody, V domains shown) VH: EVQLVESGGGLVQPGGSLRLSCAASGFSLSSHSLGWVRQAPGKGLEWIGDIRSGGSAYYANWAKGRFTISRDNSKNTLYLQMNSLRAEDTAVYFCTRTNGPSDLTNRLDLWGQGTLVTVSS VL: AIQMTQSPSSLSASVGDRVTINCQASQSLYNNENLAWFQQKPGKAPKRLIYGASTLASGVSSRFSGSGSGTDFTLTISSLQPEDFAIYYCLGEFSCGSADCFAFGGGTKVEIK", "result": "≥ 30%"}
{"binder": "humanized antibody #1 (antibody, V domains shown) VH: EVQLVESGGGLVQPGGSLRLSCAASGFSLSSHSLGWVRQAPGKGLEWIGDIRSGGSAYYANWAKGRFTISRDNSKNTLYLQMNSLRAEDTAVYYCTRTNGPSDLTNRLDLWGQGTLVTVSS VL: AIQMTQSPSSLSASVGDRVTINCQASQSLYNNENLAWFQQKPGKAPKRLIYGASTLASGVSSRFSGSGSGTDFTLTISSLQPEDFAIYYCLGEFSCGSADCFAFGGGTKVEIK", "result": "≥ 30%"}
{"binder": "humanized antibody #7 (antibody, V domains shown) VH: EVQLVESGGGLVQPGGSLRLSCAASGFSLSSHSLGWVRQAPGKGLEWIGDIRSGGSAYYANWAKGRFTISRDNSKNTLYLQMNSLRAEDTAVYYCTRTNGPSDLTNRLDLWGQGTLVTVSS VL: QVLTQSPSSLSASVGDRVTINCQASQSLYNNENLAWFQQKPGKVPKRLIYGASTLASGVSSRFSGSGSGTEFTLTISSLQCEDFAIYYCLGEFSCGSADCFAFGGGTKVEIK", "result": "≥ 40%"}
{"binder": "humanized antibody #2 (antibody, V domains shown) VH: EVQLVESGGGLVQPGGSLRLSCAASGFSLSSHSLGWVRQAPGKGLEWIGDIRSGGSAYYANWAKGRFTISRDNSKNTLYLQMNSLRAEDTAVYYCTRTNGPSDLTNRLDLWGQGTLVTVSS VL: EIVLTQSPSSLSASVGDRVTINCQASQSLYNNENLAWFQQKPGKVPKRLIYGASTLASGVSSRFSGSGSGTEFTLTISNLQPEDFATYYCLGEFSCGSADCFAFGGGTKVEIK", "result": "≥ 36%"}
{"binder": "humanized antibody #3 (antibody, V domains shown) VH: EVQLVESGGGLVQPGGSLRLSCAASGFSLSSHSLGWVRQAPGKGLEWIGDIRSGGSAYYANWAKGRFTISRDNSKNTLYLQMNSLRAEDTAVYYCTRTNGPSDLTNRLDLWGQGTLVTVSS VL: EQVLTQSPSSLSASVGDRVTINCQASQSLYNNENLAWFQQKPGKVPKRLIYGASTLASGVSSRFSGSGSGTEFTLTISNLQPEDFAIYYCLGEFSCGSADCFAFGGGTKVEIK", "result": "≥ 36%"}
{"binder": "human-rabbit chimeric anti-CAPRIN-1 antibody (antibody, V domains shown) VH: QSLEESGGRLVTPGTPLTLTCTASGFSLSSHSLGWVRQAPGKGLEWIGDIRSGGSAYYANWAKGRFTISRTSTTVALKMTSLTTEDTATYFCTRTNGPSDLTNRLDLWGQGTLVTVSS VL: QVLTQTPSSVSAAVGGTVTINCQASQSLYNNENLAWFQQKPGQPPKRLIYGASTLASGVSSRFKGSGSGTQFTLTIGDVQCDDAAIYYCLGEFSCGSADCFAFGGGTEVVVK", "result": "≥ 30%"}
